Data provenance is PubChem BioAssay (Tox21).

# Assay Protocol: qHTS assay to identify small molecule agonists of the constitutive androstane receptor (CAR) signaling pathway - cell viability counter screen (AID 1224836); note: nearly all actives have a fitted effect of over 45% in size
# Condition Notes: HepG2-CYP2B6-hCAR viability, CellTiter-Fluor, 23 h, PK11195 added to every well; series mostly up to 92.4 µM
Inconclusive results are not listed. Active and inactive are the calls of the source. Calls come from the whole dose curve; as a rule, active = well fitted cell-killing curve with a large enough effect in the repeat runs; inconclusive = weak or mixed curves, or effect the other way; inactive = flat fitted curve, though single readings scatter.
Possible outcomes: active, inactive

CC(C)[C@@H](Nc1ccc(C(F)(F)F)cc1Cl)C(=O)OC(C#N)c1cccc(Oc2ccccc2)c1 (stereo not given in full) = inactive
[C-]1=CC=CC1.[Cl][Zr+2][Cl].c1cc[cH-]c1 = inactive
C[C@@H]1CC2=CC(=O)CC[C@@H]2[C@H]2CC[C@@]3(C)[C@@H](CC[C@]3(C)O)[C@@H]21 = inactive
OCC(Br)CBr (stereo not given) = inactive
CN=C=O = inactive
CN(C)CCc1c[nH]c2ccccc12 = inactive
O=[N+]([O-])C(Br)Br = inactive
CC(C)C(Br)C(=O)NC(N)=O (stereo not given) = inactive
O=C1C2(Cl)C3(Cl)C4(Cl)C(Cl)(Cl)C5(Cl)C3(Cl)C1(Cl)C5(Cl)C24Cl (stereo not given) = active
CCn1cc[n+](C)c1 (tested in a mixture with another compound) = inactive
O=S1OCC2C(CO1)C1(Cl)C(Cl)=C(Cl)C2(Cl)C1(Cl)Cl (stereo not given) = inactive
COP(=O)(OC)O/C(=C\Cl)c1cc(Cl)c(Cl)cc1Cl = inactive
[O]=[Cr][O][Cr]=[O] = inactive
COc1c2c(cc3c1OCO3)CCN(C)C2 = inactive
N#Cc1c[nH]cc1-c1cccc2c1OC(F)(F)O2 = inactive

---

# Assay Protocol: qHTS assay to identify small molecule agonists of the NFkB signaling pathway - cell viability counter screen (AID 1159515); note: nearly all actives have a fitted effect of over 55% in size
# Condition Notes: NFkB-bla ME-180 viability, CellTiter-Glo luminescence, 5 h; series mostly up to 61 µM
Records with an inconclusive call do not appear. Activity calls are given as the source filed them. Calls come from the whole dose curve.
Possible outcomes: true (active), false (inactive)

COP(=O)(OC)Oc1ccc([N+](=O)[O-])cc1 = false
O=[N+]([O-])C(Br)Br = false
O=C(NC(=O)c1ccccc1Cl)Nc1ccc(OC(F)(F)F)cc1 = false
CNC(=O)CSP(=O)(OC)OC = false
CCCCN(CCCC)C(=S)[S-].CCCCN(CCCC)C(=S)[S-].[Ni+2] = false
CCO/N=C(\CC)C1=C(O)CC(c2c(C)cc(C)cc2C)CC1=O (configuration not stated) = false
CC(=O)[O-].CC(=O)[O-].O.O.O.[Pb+2] = false
C#CC1(O)CCCCC1 = false
CC1(C)[C@H](/C=C2\CCSC2=O)[C@@H]1C(=O)OCc1coc(Cc2ccccc2)c1 = false
CCN(CC)CCc1c[nH]c2ccccc12 = false
CCc1cccc(C)c1N(C(=O)CCl)[C@@H](C)COC = false
COP(=S)(OC)Oc1ccc([N+](=O)[O-])c(C)c1 = false
CCCCON=O = false
CSSC = false
COC(=O)N(OC)c1ccccc1COc1ccn(-c2ccc(Cl)cc2)n1 = false
CC(C)NCC(O)c1ccccc1Cl (configuration not stated) = false
CC(C)N(C(=O)SC/C(Cl)=C/Cl)C(C)C = false
CCC(OC(C)=O)C(CC(C)NC)(c1ccccc1)c1ccccc1 (configuration not stated) = false
CCC(C)Nc1c([N+](=O)[O-])cc(C(C)(C)C)cc1[N+](=O)[O-] (configuration not stated) = false
O=C(N[C@H]1N=C(c2ccccc2F)c2cccc3c2N(CC3)C1=O)c1cc2ccccc2[nH]1 = false
C=Cc1cccc(CCl)c1 = false
Nc1c(Cl)c(Cl)c(Cl)c(Cl)c1Cl = false
COc1ccc2c3c1O[C@H]1[C@H](O)CC[C@H]4[C@@H](C2)N(C)CC[C@@]341 = false
COc1ccc(Cc2nccc3cc(OC)c(OC)cc23)cc1OC = false
O=C(NC(=O)c1c(F)cccc1F)Nc1ccc(Oc2ccc(C(F)(F)F)cc2Cl)cc1F = false
CCC1COC(Cn2cncn2)(c2ccc(Cl)cc2Cl)O1 (configuration not stated) = false
Clc1ccc(C(Cl)(Cl)Cl)cc1Cl = false
[Cl][Hg][c]1ccccc1 = true
COC(=O)C(C)N(C(=O)c1ccco1)c1c(C)cccc1C (configuration not stated) = false
CC(=O)O.CC(=O)O.CC(=O)O.CC(=O)O.CC(=O)O.CC(=O)O.CC(=O)O.O.O.[Cr].[Cr].[Cr] = false
C[C@@H]1CC2=CC(=O)CC[C@@H]2[C@H]2CC[C@@]3(C)[C@@H](CC[C@]3(C)O)[C@@H]21 = false
CNC(=O)Oc1cc(C)cc(C(C)C)c1 = false
[O-][Cl+3]([O-])([O-])O = false
Nc1ccc(N=Nc2ccccc2)cc1 = false
O=c1[nH]c2cc(Cl)ccc2n1C1CCNCC1 = false
CO/N=C(/C1=NOCCO1)c1ccccc1Oc1ncnc(Oc2ccccc2Cl)c1F = false
CCC1(CC)C(=O)N=C(O)NC1=O = false

---

# Assay Protocol: qHTS RealTime-Glo MT Cell Viability Assay in HEK293 cells - 40 hour (AID 1224874); note: % is set by controls: 0 for no effect and ±100 for the full control effect; nearly all actives have a fitted effect of over 50% in size
# Condition Notes: RealTime-Glo luminescence; hits give low values
Results filed as inconclusive are left out.
In this section we review reported max response values for a set of compounds.
Readout Type: max response (%)

COC(=O)C(C)N(C(=O)c1ccco1)c1c(C)cccc1C (configuration not stated) = -12.7
C=CCBr = 0.528
CN/C(=N\[N+](=O)[O-])NCc1cnc(Cl)s1 = -7.42
CC1(C)C(C=C(Cl)Cl)C1C(=O)OC(C#N)c1ccc(F)c(Oc2ccccc2)c1 (configuration not stated) = -18.6
CC(Cc1ccc(O)cc1)NCC(O)c1cc(O)cc(O)c1 (configuration not stated) = 1.61
CCOC(=O)CCN(SN(C)C(=O)Oc1cccc2c1OC(C)(C)C2)C(C)C = -6
CC(=O)O.CC(=O)O.CC(=O)O.CC(=O)O.CC(=O)O.CC(=O)O.CC(=O)O.O.O.[Cr].[Cr].[Cr] = 2.64
O=Cc1ccccc1 = 19.9
COc1c2c(cc3c1OCO3)CCN(C)C2 = -9.04
O=S(=O)(O)F = 6.96
CC(Cc1ccc(OCC(=O)O)cc1)NCC(O)c1csc(C(F)(F)F)n1 (configuration not stated) = -5.31
C[C@]12C/C(=C/O)C(=O)C[C@@H]1CC[C@@H]1[C@@H]2CC[C@@]2(C)[C@H]1CC[C@]2(C)O = -17.5
Clc1c(Cl)c(Cl)c(Cl)c(Cl)c1Cl = 8.77
OCC(Br)CBr (configuration not stated) = -11.1
[Cl-].[Cl-].[Cl-].[Yb+3] = 28.3
Nc1nc(N)c(N)c(N)n1 = 10.2
Oc1ccc(Cl)c(Cl)c1 = -18.2
N#CSCc1ccccc1 = -24.3
CCN(CC)CCc1c[nH]c2ccccc12 = 6.8
CCCCC/C=C\C/C=C\C/C=C\C/C=C\CCCC(=O)NCC(=O)O = -10.5
O=C(CCCCl)c1ccc(F)cc1 = -0.41
CCOP(=S)(OCC)Oc1cc(C)nc(N(CC)CC)n1 = 2.8

---

# Assay Protocol: Caspase-3/7 induction in CHO-K1 cells by small molecules, qHTS cell viability counter screen (AID 1346979); note: nearly all actives have a fitted effect of over 35% in size
# Condition Notes: CellTiter-Fluor fluorescence, 17 h; series mostly up to 92.4 µM
Records with an inconclusive call do not appear. The source made the active and inactive calls. Calls follow the shape of the dose curve; as a rule, active = well fitted cell-killing curve with a large enough effect in the repeat runs; inconclusive = weak or mixed curves, or effect the other way; inactive = no such curve, though single readings can be large or run the other way.
Possible outcomes: class 1 for active, class 0 for inactive

O=P(Cl)(Cl)Cl = class 0
CC[N+]1(CC)CCC(OC(=O)C(O)(c2ccccc2)c2ccccc2)C1 (stereo not drawn) = class 0
O=[N+]([O-])C(Br)Br = class 0
CCCCn1cc[n+](C)c1.[Cl][Fe-]([Cl])([Cl])[Cl] = class 0
[Cl][Hg][c]1ccccc1 = class 1
O=[N+]([O-])c1cccc2cccc([N+](=O)[O-])c12 = class 0
Nc1nc(N)nc(Cl)n1 = class 0
CCN(CC)C(=O)N[C@@H]1C=C2c3cccc4[nH]cc(c34)C[C@@H]2N(C)C1 = class 0
CC(C)C(Nc1ccc(C(F)(F)F)cc1Cl)C(=O)OC(C#N)c1cccc(Oc2ccccc2)c1 (stereo not drawn) = class 0
CN1[C@@H]2CC[C@H]1CC(O)C2 (stereo partly drawn) = class 0
CC(Cc1ccc(OCC(=O)O)cc1)NCC(O)c1csc(C(F)(F)F)n1 (stereo not drawn) = class 0
c1ccc(N=NNc2ccccc2)cc1 = class 1
COc1cnc(OC)n2nc(NS(=O)(=O)c3c(OCC(F)F)cccc3C(F)(F)F)nc12 = class 0

---

# Assay Protocol: qHTS assay to identify aromatase inhibitors - cell viability counter screen (AID 743084);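 note: cells stimulated with testosterone during compound exposure; nearly all actives have a fitted effect of over 55% in size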
# Condition Notes: MCF-7 aro ERE viability, CellTiter-Fluor, 24 h; series mostly up to 70.3 µM
Records with an inconclusive call do not appear. The source made the active and inactive calls. Calls come from the whole dose curve; as a rule, active = well fitted cell-killing curve with a large enough effect in the repeat runs; inconclusive = weak or mixed curves, or effect the other way; inactive = no such curve, though single readings can be large or run the other way.
Possible outcomes: active, inactive

CC(O)C(=O)[O][Hg][c]1ccccc1 (stereo not given) = active
CC(Cl)CCl (stereo not given) = inactive
O=[N+]([O-])c1ccc(Cl)c(Cl)c1Cl = inactive
[Cl-].[Cl-].[Sn+2] = inactive
CCN(CC)Cc1nccn1-c1ccc([N+](=O)[O-])cc1C(=O)c1ccccc1Cl = inactive
CCCCc1ccccc1 = inactive
CC(C)Br = inactive
CC1(C)C(C=C(Cl)Cl)C1C(=O)OC(C#N)c1ccc(F)c(Oc2ccccc2)c1 (stereo not given) = inactive
CC(C)N(C(=O)CCl)c1ccccc1 = active
C=CCOC(=O)c1ccccc1N = inactive
